Please go through the items and note down their IC50.
test system: HCV replicon 1AQ30D; assay: microbe, parasite or virus in culture; format: cell-based, Hepatitis C virus (HCV); conditions: Hepatitis C virus, read-out: 1A Q30D IC50 (nM), replicon 1AQ30D; Replicon Assay B
Kindly provide the numeric value in nM only, without the unit symbol.

Query: IC50; subject: COC(=O)N[C@H](C(=O)N1CCC[C@H]1c1ncc(-c2cc(F)c3c(c2)OC(c2ccc(CC4CC4)s2)n2c-3cc3cc(-c4cnc([C@@H]5C[C@H]6C[C@H]6N5C(=O)[C@@H](NC(=O)OC)C(C)C)[nH]4)ccc32)[nH]1)C(C)C (single isomer, unassigned)
0.23

Any idea what its IC50 is? The compound is COC(=O)NC(C(=O)N1CCC[C@H]1c1ncc(-c2ccc3c(c2)cc2n3C(c3ccc(C4CC4)s3)Oc3cc(-c4cnc([C@@H]5CCCN5C(=O)[C@@H](NC(=O)OC)C(C)C)[nH]4)cc(F)c3-2)[nH]1)C1CCOC(C)(C)C1 (some centres unmarked)
0.055
